# Assay Notes: Tmax in Balb/c mouse at 30 mg/kg, po
# Assay type: ADME, organism-based
# Experimental Conditions: in vivo
Property Label: Tmax (min)
Numbers only, in min.

Requested read-out: Tmax. Entry: CC[C@]1(C)C[C@@H](OC(=O)CSC(C)(C)CNC(=O)[C@H](N)CC(C)C)[C@]2(C)[C@H](C)CC[C@]3(CC[C@@H](O)[C@H]32)[C@@H](C)[C@@H]1O
49.8

---

Could you please report measured MIC for the items listed next?
# Tested on: Streptococcus salivarius
# Assay Notes: Antibacterial activity against Streptococcus salivarius […] incubated for 24 hrs under aerobic condition by MABA
# Type: functional
# Experimental Conditions: read-out: MIC100
Answers are plain numbers, in µg/mL.

{"Smiles Code": "C=C[C@]1(C)C[C@@H](OC(=O)CSC(C)(C)CNC(=O)[C@H](N)C(C)C)[C@]2(C)[C@H](C)CC[C@]3(CCC(=O)[C@H]32)[C@@H](C)[C@@H]1O", "MIC / µg/mL": 0.4}
{"Smiles Code": "C=C[C@]1(C)C[C@@H](OC(=O)CSC(C)(C)CNC(=O)[C@H](N)CC(C)C)[C@]2(C)[C@H](C)CC[C@]3(CCC(=O)[C@H]32)[C@@H](C)[C@@H]1O", "MIC / µg/mL": 6.25}

Hey, quick one: what's MIC for each of these?
1. CC[C@]1(C)C[C@@H](OC(=O)CSC(C)(C)CNC(=O)[C@H](N)CC(C)C)[C@]2(C)[C@H](C)CC[C@]3(CC[C@@H](O)[C@H]32)[C@@H](C)[C@@H]1O
2. CC[C@]1(C)C[C@@H](OC(=O)CSC(C)(C)CNC(=O)[C@H](N)CC(C)C)[C@]2(C)[C@H](C)CC[C@]3(CCC(=O)[C@H]32)[C@@H](C)[C@@H]1O
3. CC(=O)NC[C@H]1CN(c2ccc(N3CCOCC3)c(F)c2)C(=O)O1

1. 6.25
2. 0.4
3. 3.13
